Molecular target: NFE2 (Homo sapiens, UniProt Q16621)
Construct: made in house
Sequence (Q16621 266-329 limits assumed): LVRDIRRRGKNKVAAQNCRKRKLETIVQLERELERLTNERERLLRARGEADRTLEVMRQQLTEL
Experiment: Direct-binding FRET assay
Details: 23°C; N-terminal rhodamine design; mean or single; read-out: Kd
Where no end group is shown, it is not given here.
What Kd was measured for each of the following?

Some sequences with known Kd results, for comparison:
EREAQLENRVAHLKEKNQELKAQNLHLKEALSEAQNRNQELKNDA [XBP1-d1] ... > 1000 nM
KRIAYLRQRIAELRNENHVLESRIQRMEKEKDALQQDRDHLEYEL [ATF5-d1] ... > 1000 nM

Incoming: Give its Kd value. Item: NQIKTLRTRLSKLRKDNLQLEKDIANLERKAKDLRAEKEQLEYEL [ATF4-d1]
Outgoing: > 1000 nM
